These entries and their values trace back to patent US20090029958A1.

Target: Adrenergic β2 (Homo sapiens, UniProt P07550)
Construct: endogenous in cells; host or cells: H292 cells
Sequence (P07550 whole entry): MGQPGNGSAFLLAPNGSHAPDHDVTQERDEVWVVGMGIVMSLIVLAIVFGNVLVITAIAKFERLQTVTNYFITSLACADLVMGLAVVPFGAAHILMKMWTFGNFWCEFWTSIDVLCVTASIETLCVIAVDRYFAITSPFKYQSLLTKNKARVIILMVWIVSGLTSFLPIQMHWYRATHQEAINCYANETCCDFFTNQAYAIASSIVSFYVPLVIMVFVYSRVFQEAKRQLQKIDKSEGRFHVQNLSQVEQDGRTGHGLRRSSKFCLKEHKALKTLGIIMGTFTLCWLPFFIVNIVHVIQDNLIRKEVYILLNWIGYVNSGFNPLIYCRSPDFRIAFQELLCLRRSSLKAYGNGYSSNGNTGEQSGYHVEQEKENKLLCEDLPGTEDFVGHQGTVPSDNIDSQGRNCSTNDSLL
Assay: Alternative Adrenergic β2 Mediated cAMP Production in H292 cells (60 minutes incubation with test compound)
Type: cell-based
Conditions: fraction relative to the maximum activity determined for formoterol, 60 minutes incubation
Where a name gives a salt, the structure may show the parent alone.
Exercise: state measured Intrinsic Activity for each of the compounds provided.

Some entries whose results are on file:
| compound | target_or_test_system | Intrinsic Activity |
| --- | --- | --- |
| Cc1cccc(Cl)c1CNC(=O)CCN1CCC(NC[C@H](O)c2ccc(O)c3[nH]c(=O)ccc23)CC1 | Adrenergic β2 (Homo sapiens, UniProt P07550) | 0.8 |
| O=c1[nH]c2c(O)ccc([C@@H](O)CNCC3CN(CCCOCCc4ccccc4)C3)c2s1 [Example 20, hydrochloride] | Adrenergic β2 (Homo sapiens, UniProt P07550) | 1 |
| O=C(CCN1CCC(NC[C@H](O)c2ccc(O)c3[nH]c(=O)ccc23)CC1)NC12CC3CC(CC(C3)C1)C2 | Adrenergic β2 (Homo sapiens, UniProt P07550) | 0.8 |

Next up:
Specify reported Intrinsic Activity for the compound shown: O=c1ccc2c([C@@H](O)CNCC3(O)CCN(CCOCCc4cccc5c4CCCC5)CC3)ccc(O)c2[nH]1
0.9

* * *

Target: Adrenergic β2 (Homo sapiens, UniProt P07550)
Construct: endogenous in cells; host or cells: H292 cells
Experiment: Alternative Adrenergic β2 Mediated cAMP Production in H292 cells (60 minutes incubation with test compound)
Format: cell-based
Details: rolipram 300 μM, test compounds incubated 60 minutes at room temperature
Structures can show the parent of a compound that is named as a salt.
observed_property: log10 EC50 (log10 of the value in nM)
Remember, log10 of EC50, in nM.

| compound | target_or_test_system | log10 EC50 |
| --- | --- | --- |
| O=c1[nH]c2c(O)ccc([C@@H](O)CNCC3CN(CCCOCCc4ccccc4)C3)c2s1 [Example 20, hydrochloride] | Adrenergic β2 (Homo sapiens, UniProt P07550) | -0.50 |
| O=c1ccc2c([C@@H](O)CNCC3(O)CCN(CCOCCc4cccc5c4CCCC5)CC3)ccc(O)c2[nH]1 | Adrenergic β2 (Homo sapiens, UniProt P07550) | -0.10 |
| Cc1cccc(Cl)c1CNC(=O)CCN1CCC(NC[C@H](O)c2ccc(O)c3[nH]c(=O)ccc23)CC1 | Adrenergic β2 (Homo sapiens, UniProt P07550) | 0.70 |
| O=C(CCN1CCC(NC[C@H](O)c2ccc(O)c3[nH]c(=O)ccc23)CC1)NCc1cccc(Cl)c1Cl | Adrenergic β2 (Homo sapiens, UniProt P07550) | 0.50 |

Next up:
Report value only: log10 EC50, Adrenergic β2 (Homo sapiens, UniProt P07550), O=C(CCN1CCC(NC[C@H](O)c2ccc(O)c3[nH]c(=O)ccc23)CC1)NC12CC3CC(CC(C3)C1)C2
0.60

* * *

Exercise: state measured Intrinsic Activity for each of the molecules provided.
Biological target: Adrenergic β2 (Homo sapiens)
Construct: endogenous in cells; host or cells: H292 cells
Test: cAMP production in H292 cells, AlphaScreen cAMP detection (10 minutes incubation with test compound)
Format: cell-based
Conditions: fraction relative to the maximum activity determined for formoterol, 10 minutes incubation
Give bare numbers.

Some entries whose results are on file:
| molecule | Intrinsic Activity |
| --- | --- |
| O=C(CCN1CCC(NC[C@H](O)c2ccc(O)c3[nH]c(=O)ccc23)CC1)NCc1ccccc1 [Example 6] | 0.8 |
| O=c1ccc2c([C@@H](O)CNC[C@H]3CCCN(CCOCCc4ccccc4)C3)ccc(O)c2[nH]1 [Example 14] | 1.0 |
| O=c1ccc2c([C@@H](O)CNC3CCN(CCCOCCc4ccccc4)CC3)ccc(O)c2[nH]1 [Example 3] | 0.8 |
| O=c1ccc2c([C@@H](O)CN[C@H]3CC[C@H](NCCOCCc4ccccc4)CC3)ccc(O)c2[nH]1 [Example 2] | 0.9 |

Next up:
Specify reported Intrinsic Activity for the molecule shown: O=c1ccc2c([C@@H](O)CNCC3(O)CCN(CCOCCc4ccccc4)CC3)ccc(O)c2[nH]1 [Example 5]
0.8

* * *

Target: Adrenergic β2 (Homo sapiens)
Construct: endogenous in cells; host or cells: H292 cells
Test: cAMP production in H292 cells, AlphaScreen cAMP detection (10 minutes incubation with test compound)
Format: cell-based
Settings: rolipram 300 μM, test compounds incubated 10 minutes at room temperature
pEC50: −log10 of the molar value.
Record yes whenever pEC50 is at 8 or higher; record no when lower.

The following compounds have reported results that may help.
| compound | label_value |
| --- | --- |
| O=c1ccc2c([C@@H](O)CNC[C@H]3CCCN(CCOCCc4ccccc4)C3)ccc(O)c2[nH]1 [Example 14] | yes |
| O=c1ccc2c([C@@H](O)CNC3CCN(CCCOCCc4ccccc4)CC3)ccc(O)c2[nH]1 [Example 3] | no |

For this compound, is measured pEC50 8 or higher? O=c1ccc2c([C@@H](O)CNCC3(O)CCN(CCOCCc4ccccc4)CC3)ccc(O)c2[nH]1 [Example 5]
yes

For this compound, is measured pEC50 8 or higher? O=c1ccc2c([C@@H](O)CN[C@H]3CC[C@H](NCCOCCc4ccccc4)CC3)ccc(O)c2[nH]1 [Example 2]
no
